pIC50: −log10 of the molar value.
The compounds below each have a reported pIC50 tested on UniProt Q06187; the values come from various publications.

Consider the following illustrative entries.
Data request: Give recorded pIC50. [2H]C([2H])([2H])n1cc(Nc2cc(-c3ccc(CNC(=O)N4CC(OC(C)C)C4)c(C)c3)ncn2)cn1
Data returned: > 8.00

Data request: Look up pIC50 of NC(=O)c1c(N)ncnc1N1CCC[C@@H](NC(=O)CNc2cc(Cl)cc(Cl)c2)C1 and report it.
Data returned: 6.00 to 7.00

Data request: Specify reported pIC50 for the compound shown: CC(C)c1cnc(NC(=O)c2ccc(-c3nn([C@@H]4CCN(C(=O)/C=C/CN(C)C5CC5)C4)c4ncnc(N)c34)cc2)s1
Data returned: > 7.00

Now take the following compound into account.
Data request: Answer with reported pIC50 of C=CC(=O)N1CC[C@@H](n2nc(-c3ccc(Oc4ccccc4)cc3F)c3cncnc32)C1
Data returned: > 7.00

====

# pIC50 against BTK (Homo sapiens, UniProt Q06187), merged from multiple literature sources
# Sequence (Q06187 whole entry): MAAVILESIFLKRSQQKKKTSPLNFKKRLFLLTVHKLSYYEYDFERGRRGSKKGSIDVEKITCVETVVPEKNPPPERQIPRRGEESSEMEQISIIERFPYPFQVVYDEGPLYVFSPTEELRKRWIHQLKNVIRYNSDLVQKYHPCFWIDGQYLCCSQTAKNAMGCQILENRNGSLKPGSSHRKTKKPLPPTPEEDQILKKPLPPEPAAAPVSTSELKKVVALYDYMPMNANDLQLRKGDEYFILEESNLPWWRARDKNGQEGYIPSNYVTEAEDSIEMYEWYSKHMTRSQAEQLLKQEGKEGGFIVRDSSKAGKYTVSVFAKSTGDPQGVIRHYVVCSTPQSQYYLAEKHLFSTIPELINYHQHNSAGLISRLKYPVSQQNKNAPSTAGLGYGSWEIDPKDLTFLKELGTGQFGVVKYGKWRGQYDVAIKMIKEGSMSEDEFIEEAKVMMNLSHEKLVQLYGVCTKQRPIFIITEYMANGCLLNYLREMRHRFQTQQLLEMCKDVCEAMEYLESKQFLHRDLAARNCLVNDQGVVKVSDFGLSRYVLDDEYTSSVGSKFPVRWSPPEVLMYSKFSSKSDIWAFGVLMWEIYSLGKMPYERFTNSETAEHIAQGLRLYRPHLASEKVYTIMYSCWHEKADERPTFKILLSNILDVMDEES
pIC50: −log10 of the molar value.

Sample records with pIC50:
Data request: Write down measured pIC50 (BTK (Homo sapiens, UniProt Q06187)) for this compound. CN(C/C=C/C(=O)N1CCC[C@@H](n2cc(-c3ccc(Oc4ccccc4)cc3)c3c(N)n[nH]c(=O)c32)C1)C1CCC1
Data returned: ≥ 8.00

Data request: Provide pIC50, tested on BTK (Homo sapiens, UniProt Q06187), for COc1ncc(-c2cnc3[nH]cc(C(=O)c4c(F)ccc(NS(=O)(=O)C(C)C)c4F)c3c2)cn1 .
Data returned: ≥ 5.00

Data request: Provide the reported pIC50 (system: BTK (Homo sapiens, UniProt Q06187)) for C=CC(=O)Nc1cccc(-c2cc(-c3ccccc3)cc3cnc(N)nc23)c1
Data returned: > 7.00

Data request: # return pIC50 for CC(C)c1ccc(S(=O)(=O)Nc2ccc(F)c(C(=O)c3c[nH]c4ncc(-c5cnn(C)c5)cc34)c2F)cc1 , test system: BTK (Homo sapiens, UniProt Q06187)
Data returned: ≥ 5.00

Turning now to a further compound:
Data request: Recall the reported pIC50 of Cc1ccnc(NC(=O)c2ccc(-c3nn([C@@H]4CCCN(C(=O)/C=C/CN(C)C)C4)c4ncnc(N)c34)cc2)c1 when tested on BTK (Homo sapiens, UniProt Q06187).
Data returned: > 9.00

====

Reported pIC50 on BTK (Homo sapiens, UniProt Q06187) for assorted compounds, compiled from publications.
pIC50: −log10 of the molar value.

Data request: // output pIC50; input CC(C)C(NC(=O)c1cc2c(s1)CCCC2)c1ccc(-c2ncnc3[nH]ncc23)cc1 (stereo not shown) ; system BTK (Homo sapiens, UniProt Q06187)
Data returned: 5.00 to 6.00

Data request: Give measured pIC50 for CC#CC(=O)N1CC[C@H](n2nc(-c3ccc(C(=O)Nc4ccccc4)cc3)c3c(N)nccc32)C1 (BTK (Homo sapiens, UniProt Q06187)).
Data returned: < 6.40

Data request: Specify the recorded pIC50 for C=CC(=O)Nc1cccc(Oc2c(Cl)cnc3[nH]c(-c4ccc(N5CCN(C)CC5)cc4)cc23)c1 , system: BTK (Homo sapiens, UniProt Q06187).
Data returned: > 7.00

Data request: Determine reported pIC50 for Cc1nn2c(N)c(-c3ccccc3)c3nc2c1C(=O)NC[C@H](C)Oc1ncc(F)cc1CN3 ; test system: BTK (Homo sapiens, UniProt Q06187).
Data returned: < 6.00

Data request: Quote pIC50 with test system BTK (Homo sapiens, UniProt Q06187) for COc1cc(-c2cc3nccc(-c4ccc5[nH]ccc5c4)c3o2)cc(OC)c1OC
Data returned: 4.30 to 5.52

Data request: Specify pIC50 for C#CC(=O)N1CC2CC1C(n1nc(-c3ccc(-c4ccccc4)cc3)c3c(N)ncnc31)C2 (stereo not shown) , system BTK (Homo sapiens, UniProt Q06187).
Data returned: < 6.00

Data request: // fetch pIC50; item: C=CC(=O)N1CCCC(n2c(=O)n(-c3ccc(-c4noc(C)n4)cc3)c3c(N)ncnc32)C1 (stereo not shown) ; system: BTK (Homo sapiens, UniProt Q06187)
Data returned: 6.68

Data request: // fetch pIC50; item: NC(=O)c1cnc2[nH]ccc2c1N[C@@H]1CCCN(C(=O)CNc2cc(Cl)cc(Cl)c2)[C@@H]1C(F)(F)F ; system: BTK (Homo sapiens, UniProt Q06187)
Data returned: > 7.00

Data request: Please respond with reported pIC50 (system BTK (Homo sapiens, UniProt Q06187)) for C[C@H]1C[C@H](CNC(=O)c2cn(C(C)(C)C)nn2)CCN1c1nc(-c2cnn(C)c2)cn2nccc12 (single isomer, unassigned) .
Data returned: 6.00 to 8.00

Data request: Specify the recorded pIC50 for C=CC(=O)N1CCC(c2cc(-c3ccc(C(=O)Nc4cc(C#N)ccn4)cc3)n3cnccc23)C1 (stereo not shown) , system: BTK (Homo sapiens, UniProt Q06187).
Data returned: > 7.00
